- TESTED TARGET: T1, hRET.mmh (human, UniProt P07949 29-635, biotinylated in the ELISA of Example 4 (biot-hRET.mmh); not in the SPR of Example 3)
- T1 construct: also called biot-hRET.mmh; soluble monomeric human RET
- ASSAY EXPLANATION: SPR Biacore T200, mAb capture, 25 C
READOUT NAME: t½
Note: a bare number is incomplete; add the unit.

Asked: Report t½ for H4H8060P (antibody, human IgG4, V domains shown, human IgG4 Fc (H4H prefix)) VH: QVTLKESGPVLVKPTETLTLTCTVSGFSLSSARMGVSWIRQPPGKALEWLAHIFSTDEKSYSTSLKSRLSISKDTSLSQVVLIMTNMDPVDTATYYCARRTTMAPYYYYYGMDVWGHGTTVTVSS VL: AIQMTQSPASLSASVGDRVTITCRASQGIRNDLGWYQQKPGKAPKLLISAASSLQSGVPSRFSGSGSGTDFTLTISSLQPEDFATYYCLQDYKYPWTFGQGTKVEIK
Given back: 37 min

Asked: Report t½ for H4H8084P (antibody, human IgG4, V domains shown, human IgG4 Fc (H4H prefix)) VH: QVQLVESGGGVVQPGRSLRLSCEASGFTFRNYGMHWVRQAPGKGLDWVSTIYYDGSDEYYSDSVKGRFTISRDNSKNTLYLQMNSLRAEDTAVYYCARDPPSFRYFDYWGQGTLVTVSS VL: DIQMTQSPSTLSASVGDRVTITCRASQSIRSWLTWYQQKPGKAPKVLIYKASTLERGVPSRFSGSGSGTEFTLTISSLQPEDFATYYCHQYSSYSYTFGQGTKLEIK
Given back: 31 min

Asked: Report t½ for H4H8080P (antibody, human IgG4, V domains shown, human IgG4 Fc (H4H prefix)) VH: EVQLVESGGGLVQSGGSLRLSCVASGFTFSTYAMTWVRQAPGRGLEWVSAISGSGASTYYADSLKGRFTVSRDNSKNTLYLQMNSLRAEDTAVYYCSKDHRNYDSDYDMDVWGQGTTVTVSS VL: DIQMTQSPSSLSASVGDRVTITCRASQGIRNYLGWYQQKPGKAPKRLIYTASSLQSGVPSRFRGSGSGTEFTLTISSLQPEDFATYYCLQHNSYPYTFGQGTKLEIK
Given back: 23 min

Asked: Report t½ for H4H8058P (antibody, human IgG4, V domains shown, human IgG4 Fc (H4H prefix)) VH: QVQLVESGGGVGQPGRSLRLSCVASGFTFRNYGMHWVRQAPGKGLDWVAIIGYDGSKEYNVDSVKGRFTISRDNSKNTLYLQMNSLGAEDTAIYYCARESPITGTTFDYWGQGTLVTVSS VL: DIQMTQSPPSLSASVGDRVTITCRASQSIGNYLNWYQQKPGKAPKILIYAASRLQSGVPSRFSGSGSGTDFTLTISSLQPEDFATYYCQQSYSTPLTFGGGTKVEIK
Given back: 22 min
